- System: Zika virus NS2B-NS3 protease (unlinked complex)
- protocol: Primary screen GU Rhodamine qHTS for Zika virus inhibitors: Unlinked NS2B-NS3 protease assay (AID 1347159); further: nearly all actives have a fitted effect of over 60% in size; further: potency means the concentration at half of the fitted maximal effect
- assay context: Recombinant ZIKV NS2B-NS3 protease, Rhodamine110 substrate fluorescence; series mostly up to 107 µM
Results filed as inconclusive are left out. Active and inactive are the calls of the source. The call rests on the fitted dose curve; in most records, active means well fitted inhibition curve with a large enough effect; inconclusive means small, poorly fitted or top-dose-only effect; inactive means no such curve, though single readings can be large or run the other way.

{"molecule": "CC(C)(OC1OC(CO)C(O)C(O)C1O)C1CCC(O)(CO)C2CC(O)C(C)(O)C2C1 (stereo not given)", "Potency": "inactive"}
{"molecule": "CNC(=O)COC(=O)NCCC1CCN(c2cccc(C)n2)CC1", "Potency": "inactive"}
{"molecule": "CC12CCC3c4ccc(O)cc4CCC3C1CCC2OC1OC(C(=O)O)C(O)C(O)C1O (stereo not given)", "Potency": "inactive"}
{"molecule": "CC(=O)O[C@@H]1C[C@]2(C)[C@@]3(CCC4[C@@]5(C)CC[C@H](O[C@@H]6O[C@H](C(=O)O)[C@@H](O)[C@H](O[C@@H]7O[C@H](CO)[C@H](O)[C@H](O)[C@H]7O[C@@H]7O[C@@H](C)[C@H](O)[C@@H](O)[C@H]7O[C@@H]7OC[C@](O)(CO)[C@H]7O)[C@H]6O[C@@H]6O[C@H](CO)[C@H](O)[C@H](O)[C@H]6O)C(C)(C)C5CC[C@]42C)O[C@@H](O)[C@]12C3CC(C)(C)[C@@H](OC(=O)/C=C/c1ccc(O)c(O)c1)[C@@H]2OC(=O)/C=C/c1ccccc1 (stereo not given in full)", "Potency": "3.16 µM (active)"}
{"molecule": "O=C(O)c1cc(O[C@@H]2O[C@H](CO[C@@H]3OC[C@@H](O)[C@H](O)[C@H]3O)[C@@H](O)[C@H](O)[C@H]2O)c2ccccc2c1O", "Potency": "inactive"}
